- METHOD_NOTES: Extraction of amino acid ester from aqueous mineral acid salt solution into 1,2-dichloroethane at constant pH (Table 1)
- CONDITION_INFO: pH 6.5, 20-25 °C, 1,2-dichloroethane
RESULT_TYPE: Percent extraction of ester in organic layer (%)
Please reply with the bare figure in % and do not write the unit itself.

compound CCOC(=O)c1ccccc1N.Cl [Ethyl o-aminobenzoate hydrochloride] , Percent extraction of ester in organic layer observed: 94

Record COC(=O)CCCN.Cl [Methyl γ-aminobutyrate hydrochloride] , field Percent extraction of ester in organic layer: 89

Summary for this compound, CCOC(=O)[C@@H](N)Cc1ccccc1.Cl [Ethyl L-phenylalaninate hydrochloride] : Percent extraction of ester in organic layer is 92

Record COC(=O)[C@@H](N)CCCCN.Cl [Methyl L-lysinate hydrochloride] , field Percent extraction of ester in organic layer: 82

Summary for this compound, COC(=O)[C@@H](N)CO.Cl [Methyl L-serinate hydrochloride] : Percent extraction of ester in organic layer is 86

Data point: Cl.N[C@@H](Cc1ccccc1)C(=O)OCc1ccccc1 [Benzyl L-phenylalaninate hydrochloride] ; Percent extraction of ester in organic layer = 94

Entry Cl.N[C@@H](Cc1ccccc1)C(=O)Oc1ccccc1 [Phenyl L-phenylalaninate hydrochloride] — recorded Percent extraction of ester in organic layer = 94
